Target: hepatic lipase (HL) (Homo sapiens (Human), UniProt P11150)
Sequence (P11150 23-499, species assumed): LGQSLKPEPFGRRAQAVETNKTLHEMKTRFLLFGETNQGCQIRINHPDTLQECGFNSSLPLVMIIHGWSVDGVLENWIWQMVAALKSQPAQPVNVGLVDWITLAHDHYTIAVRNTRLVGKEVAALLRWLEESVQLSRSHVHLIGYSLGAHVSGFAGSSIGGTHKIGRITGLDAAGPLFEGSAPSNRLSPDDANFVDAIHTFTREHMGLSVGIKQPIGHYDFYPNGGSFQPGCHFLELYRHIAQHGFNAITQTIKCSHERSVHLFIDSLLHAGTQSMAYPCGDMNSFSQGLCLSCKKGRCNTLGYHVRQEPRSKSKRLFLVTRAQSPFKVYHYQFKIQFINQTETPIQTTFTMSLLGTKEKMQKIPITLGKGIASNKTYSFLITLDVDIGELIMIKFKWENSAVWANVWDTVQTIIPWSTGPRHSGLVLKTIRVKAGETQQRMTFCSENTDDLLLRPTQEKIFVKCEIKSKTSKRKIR
Experiment: HL assay: hepatic lipase activity with fluorescent substrate A10070 in DMPG vesicles
Assay type: biochemical
measurement label: pIC50
Numbers only, as −log10 of the molar value.

Identify the measured pIC50 of CS(=O)(=O)C(C(=O)NCCS(N)(=O)=O)c1nc2cc(-c3ccc(F)nc3)ccc2s1 (stereo not shown) for hepatic lipase (HL) (Homo sapiens (Human), UniProt P11150).
6.91

Identify the measured pIC50 of CS(=O)(=O)C(C(=O)NCCS(N)(=O)=O)c1nc2ccc(-c3cnn(CCC4CCOCC4)c3)cc2s1 (stereo not shown) for hepatic lipase (HL) (Homo sapiens (Human), UniProt P11150).
6.41

Identify the measured pIC50 of CS(=O)(=O)C(C(=O)NCCS(N)(=O)=O)c1nc2ccc(-c3cc(O)ncc3F)cc2s1 (stereo not shown) for hepatic lipase (HL) (Homo sapiens (Human), UniProt P11150).
4.69

Turning now to a further molecule:
Identify the measured pIC50 of NS(=O)(=O)CCNC(=O)C(c1nc2ccc(-c3cccc(C(=O)NC4CCC4)c3)cc2s1)S(=O)(=O)CCC(F)(F)F (stereo not shown) for hepatic lipase (HL) (Homo sapiens (Human), UniProt P11150).
7.55

----------
Molecular target: hepatic lipase (HL) (Homo sapiens (Human), UniProt P11150)
Assay: HL assay: hepatic lipase activity with fluorescent substrate A10070 in DMPG vesicles
Format: biochemical
Threshold 60 nM: IC50 strictly smaller gives yes, otherwise no.

Worked examples, 5 compounds total:
IC50 under 60 nM? Item: CS(=O)(=O)C(C(=O)NCCS(N)(=O)=O)c1nc2ccc(-c3ccc(C(N)=O)cc3)cc2s1 (centres unmarked)
no

IC50 under 60 nM? Item: NS(=O)(=O)CCNC(=O)C(c1nc2ccc(-c3ccc(C(=O)N4CC(F)(F)C4)cc3)cc2s1)S(=O)(=O)Cc1ccc(C(F)(F)F)cc1 (centres unmarked)
no

IC50 under 60 nM? Item: COCCNC(=O)c1ccc(-c2ccc3nc(C(C(=O)NCCS(N)(=O)=O)S(=O)(=O)Cc4cccc(F)c4)sc3c2)cc1 (centres unmarked)
no

IC50 under 60 nM? Item: CC1(O)CN(C(=O)c2ccc(-c3ccc4nc(C(C(N)=O)S(=O)(=O)Cc5ccc(OC(F)(F)F)cc5)sc4c3)cc2)C1 (centres unmarked)
yes

IC50 under 60 nM? Item: NS(=O)(=O)CCNC(=O)C(c1nc2ccc(-c3cccc(C(=O)N4CC[C@H](O)C4)c3)cc2s1)S(=O)(=O)CCC(F)(F)F (some centres unmarked)
yes

---
IC50 under 60 nM? Item: COc1nccc(-c2ccc3nc(C(C(=O)NCCS(N)(=O)=O)S(C)(=O)=O)sc3c2)c1F (centres unmarked)
no

IC50 under 60 nM? Item: CC(C)S(=O)(=O)C(C(=O)NCCS(N)(=O)=O)c1nc2ccc(-c3cccc(C(=O)N(C)C)c3)cc2s1 (centres unmarked)
no

IC50 under 60 nM? Item: CS(=O)(=O)C(C(=O)NCCS(N)(=O)=O)c1nc2ccc(-c3cnn(CCN4CCOCC4)c3)cc2s1 (centres unmarked)
no

----------
Target: Endothelial lipase (EL) (Homo sapiens (Human))
Sequence (Q9Y5X9 21-500): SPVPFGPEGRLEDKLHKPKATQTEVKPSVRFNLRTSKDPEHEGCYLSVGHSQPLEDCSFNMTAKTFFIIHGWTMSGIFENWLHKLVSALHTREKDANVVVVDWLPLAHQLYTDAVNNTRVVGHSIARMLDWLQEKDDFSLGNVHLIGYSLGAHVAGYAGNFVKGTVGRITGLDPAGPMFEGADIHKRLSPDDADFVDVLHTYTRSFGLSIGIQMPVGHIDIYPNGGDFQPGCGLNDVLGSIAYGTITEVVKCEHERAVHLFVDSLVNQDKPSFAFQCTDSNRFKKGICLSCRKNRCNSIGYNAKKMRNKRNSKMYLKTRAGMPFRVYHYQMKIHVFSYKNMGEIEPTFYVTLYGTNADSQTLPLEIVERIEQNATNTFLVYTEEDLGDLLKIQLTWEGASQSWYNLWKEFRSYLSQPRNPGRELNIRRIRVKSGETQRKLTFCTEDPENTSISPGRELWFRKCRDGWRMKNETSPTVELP
Assay: EL assay: endothelial lipase activity with fluorescent substrate A10070 in DMPG vesicles
Format: biochemical
measurement label: pIC50
Give bare numbers, as −log10 of the molar value.

Examples from the recorded data:
Identify the measured pIC50 of CN(C)C(=O)c1cccc(-c2ccc3nc(C(C(=O)NCCS(N)(=O)=O)S(=O)(=O)CCC(F)(F)F)sc3c2)c1 (stereo not shown) for Endothelial lipase (EL) (Homo sapiens (Human)).
7.84

Identify the measured pIC50 of Cc1cc2nc(C(C(=O)NCCS(N)(=O)=O)S(=O)(=O)Cc3ccccc3)sc2cc1-c1ccc(C(=O)OC(C)(C)C)cc1 (stereo not shown) for Endothelial lipase (EL) (Homo sapiens (Human)).
8.85

Identify the measured pIC50 of CC(C)(C)OC(=O)c1ccc(-c2ccc3nc(C(C(=O)N[C@@H]4CCNC4=O)S(=O)(=O)Cc4ccccc4)sc3c2)cc1 (stereo partly shown) for Endothelial lipase (EL) (Homo sapiens (Human)).
7.77

Identify the measured pIC50 of NC(=O)c1ccc(-c2ccc3nc(C(C(=O)NCCS(N)(=O)=O)S(=O)(=O)CCC(F)(F)F)sc3c2)cc1 (stereo not shown) for Endothelial lipase (EL) (Homo sapiens (Human)).
8.04

Quick one: give me pIC50 for each item below, same order please.
1. NS(=O)(=O)CCNC(=O)C(c1nc2ccc(-c3ccc(C(F)(F)F)nc3)cc2s1)S(=O)(=O)CCN1CCOCC1 (stereo not shown)
2. CS(=O)(=O)C(C(=O)NCCS(N)(=O)=O)c1nc2ccc(-c3ccc(Cl)cc3)cc2s1 (stereo not shown)

1: 6.84; 2: 8.85
